Source of measurements: PubChem BioAssay (NCI)

System: UO-31 renal
Assay: NCI tumour cell line growth inhibition, 48 h; in the data active means GI50 below about 0.43 µM; inactive means the rest
Pick one and only one: 1 for active, 0 for inactive

## Input What classification did C[C@H]1[C@H](C)CC[C@]2(C(=O)N3CCN(C)CC3)CC[C@]3(C)C(=CC[C@@H]4[C@@]5(C)C/C(=C/c6cccnc6)C(=O)C(C)(C)[C@@H]5CC[C@]43C)[C@H]12 end up with in this test?
## Output 0

## Input What classification did O=C1CC(c2ccc3c(c2)OCO3)Nc2cc3c(cc21)OCO3 (stereo not drawn) end up with in this test?
## Output 0

## Input What classification did CC(C)(O)C1CCC(Nc2ccc3ncc(-c4cccc(C(F)(F)F)c4)n3n2)CC1 (stereo not drawn) end up with in this test?
## Output 0

## Input What classification did [C-]#[O+].[C-]#[O+].[C-]#[O+].[C-]#[O+].[Ir].[Ir].[O-]c1ccc2ccccc2c1C=Nc1ccc(N=Cc2c([O-])ccc3ccccc23)cc1 end up with in this test?
## Output 0

## Input What classification did CN1CCN(c2nc(NCCCCNc3ccnc4cc(Cl)ccc34)c3ccccc3n2)CC1 end up with in this test?
## Output 0

## Input What classification did O=Cc1cn(Cc2cccc(Cl)c2)c2ccccc12 end up with in this test?
## Output 0

## Input What classification did Cc1nc2sc(C(=O)Nc3cccc4ccccc34)c(N)c2cc1C(=O)/C=C/c1ccccc1 end up with in this test?
## Output 1

## Input What classification did CCCCCCCCCCCCCCCC[N+](C)(C)CCN(Cc1ccc(OC)cc1)c1ncccn1 end up with in this test?
## Output 0

====

Test system: UACC-257 melanoma
Test: NCI tumour cell line growth inhibition, 48 h; in the data active = GI50 below about 0.43 µM; inactive = the rest
Pick one and only one: active, inactive

MOLECULE	CLASS LABEL
CCCCCCCCCCCCCCCC[N+](C)(C)CCN(Cc1ccc(OC)cc1)c1ncccn1	inactive
CC1=CCC(OC(=O)C(C)(C)CCC(O)(C(=O)OC2(C(C)C)CCC3(C)OC3C2)C(C)C)(C(C)C)CC1 (stereo not given)	inactive
O=Cc1cn(Cc2cccc(Cl)c2)c2ccccc12	inactive
CN(C)c1ccc(-c2cc(-c3ccc(Nc4nc(Nc5ccccc5)nc(Nc5ccc(Cl)cc5)n4)cc3)nc(N)n2)cc1	inactive
CS(=O)(=O)c1ccc(-c2cnc(N)c(C(=O)Nc3ccccc3)n2)cc1	inactive
CCCCCCC#Cc1ccccc1C#CCO	inactive

## Input What classification did Cc1nn(-c2ccccc2)c2c1CC(=O)Nc1ccccc1-2 end up with in this test?
## Output active

## Input What classification did O=C(CCCCCCSc1nc(-c2ccccc2)cc(-c2ccccc2)n1)NO end up with in this test?
## Output inactive

## Input What classification did COc1cc(C(O)c2nc3ccccc3s2)cc(OC)c1OC (stereo not given) end up with in this test?
## Output inactive

## Input What classification did Cn1ccnc1C(=O)/C=C/c1ccc(CC(=O)Nc2ccc(S(F)(F)(F)(F)F)cc2)cc1 end up with in this test?
## Output inactive

====

Tested on: U251 CNS
Pick one and only one: yes (1) (active), no (0) (inactive)

MOLECULE	CLASS LABEL
O=C1C=C[C@@]23C[C@@H](Nc4c(O)c5c6c(c42)=NCCC=6C=N5)SC3=C1	no (0)
Cc1nc2cnc3cc(F)c(-c4ccc(Oc5ncccn5)cc4Cl)cc3c2n1[C@H]1CCN(C(=O)CO)C[C@@H]1F	no (0)
CC1=CCC(OC(=O)C(C)(C)CCC(O)(C(=O)OC2(C(C)C)CCC3(C)OC3C2)C(C)C)(C(C)C)CC1 (centres undefined)	yes (1)

Now let's try a different one.
## Input What classification did COc1ccc2c(c1)c(-c1nc(-c3c[nH]c4ncccc34)cs1)cn2CCCCN1CCOCC1 end up with in this test?
## Output no (0)
